- System: TGF-β
- ASSAY EXPLANATION: AlphaScreen SureFire p-SMAD3 (Ser423/425) assay, TGF-β-stimulated cells
- Format: cell-based
- EXPERIMENTAL CONDITIONS: Mus musculus; p-SMAD3 (Ser423/425) AlphaScreen in cell lysate; MPC-11; TGF-β stimulation; read-out: TGF-β: inhibition of TGF-β signaling, TGF-β pSMAD (MPC-11)
pIC50: −log10 of the molar value.
READOUT KIND: pIC50

Fc1ccc(-c2nc3occn3c2-c2ccc3nccn3c2)cc1F    7.00 to 7.30
CC(C)c1nnc2ccc(-c3c(-c4cc(F)c(Cl)cc4F)nc4n3CCC4)cn12    < 6.00
CC(=O)N1CCn2c1nc(-c1cc(F)cc(F)c1F)c2-c1ccc2ncnn2c1    > 7.30
Fc1ccc(-c2nc3occn3c2-c2ccc3cn[nH]c3c2)c(F)c1    6.00 to 7.00
N#Cc1cnc2ccc(-c3c(-c4ccc(F)c(Cl)c4)nc4n3CCC4)cn12    6.00 to 7.00

Field request: pIC50 | item: Fc1cc(-c2nc3n(c2-c2ccc4ncccc4c2)CCC3)cc(F)c1F < 6.00

Fill in: pIC50 of Cc1cc(-c2nc3n(c2-c2ccc4nccnc4c2)CCC3)ccc1F is ___ 6.00 to 7.00
